assay procedure: in vitro
condition label: human, HeLa-ACE2-TMPRSS2 cells
Structures can show the parent of a compound that is named as a salt.
attribute measured: CC50 at 3 days

[
  {
    "compound": "CC(C)C(=O)OC[C@H]1O[C@@H](n2ccc(NO)nc2=O)[C@H](O)[C@@H]1O [Molnupiravir]",
    "value": "> 100 µM"
  }
]

List the reported CC50 at 3 days of each compound below.
1. CC(C)(C)[C@H](NC(=O)C(F)(F)F)C(=O)N1C[C@H]2[C@@H]([C@H]1C(=O)N[C@H](C#N)C[C@@H]1CCNC1=O)C2(C)C [Nirmatrelvir, reference compound]
2. Cn1cnc(Cn2c(=O)[nH]/c(=N\c3cc4cn(C)nc4cc3Cl)n(Cc3cc(F)c(F)cc3F)c2=O)n1 [Ensitrelvir fumarate]

Given back:
> 100 µM
> 100 µM

---

assay procedure: Pharmacokinetic study in PXB-mice (human liver-chimeric)
condition label: male, PXB (human liver-chimeric), mouse, plasma, iv, 10 mg/kg, Plasma concentration, PXB-mice, i.v. 10 mg/kg, 60 min; individual mice
attribute measured: concentration at 60 min (ng/mL)
One number for each entry, in ng/mL.

concentration at 60 min recorded for this compound, CC(C)(C)[C@H](NC(=O)C(F)(F)F)C(=O)N1C[C@H]2[C@@H]([C@H]1C(=O)N[C@H](C#N)C[C@@H]1CCNC1=O)C2(C)C [Nirmatrelvir, reference compound] , is 344

---

assay procedure: Pharmacokinetic study in PXB-mice (human liver-chimeric)
condition label: male, PXB (human liver-chimeric), mouse, plasma, iv, 10 mg/kg, Plasma concentration, PXB-mice, i.v. 10 mg/kg, 480 min; individual mice
attribute measured: concentration at 480 min
Record the result as number plus unit.

concentration at 480 min recorded for this molecule, CC(C)(C)[C@H](NC(=O)C(F)(F)F)C(=O)N1C[C@H]2[C@@H]([C@H]1C(=O)N[C@H](C#N)C[C@@H]1CCNC1=O)C2(C)C [Nirmatrelvir, reference compound] , is 2.2 ng/mL

---

Tested on: VeroE6 cells
assay procedure: Cytotoxicity (WST-8) in noninfected VeroE6 cells
condition label: read-out: CC50, VeroE6
Give measured CC50 for each item. Keep answers brief.

[
  {
    "smiles text": "CC(C)(C)[C@H](NC(=O)C(F)(F)F)C(=O)N1C[C@H]2[C@@H]([C@H]1C(=S)N[C@@H](C[C@@H]1CCNC1=O)C(=O)c1nc3c(F)cccc3s1)C2(C)C",
    "CC50": "> 100 µM"
  }
]

Next, consider the following compound.
Considering "CC(C)(C)[C@H](NC(=O)C(F)(F)F)C(=O)N1C[C@H]2[C@@H]([C@H]1C(=O)N[C@@H](C[C@@H]1CCNC1=O)C(=O)c1nc3c(F)cccc3s1)C2(C)C" , its CC50 with VeroE6 cells was recorded as > 100 µM

---

assay procedure: Pharmacokinetic study in PXB-mice (human liver-chimeric)
condition label: male, PXB (human liver-chimeric), mouse, plasma, po, 10 mg/kg, Plasma concentration, PXB-mice, p.o. 10 mg/kg, 240 min; individual mice
attribute measured: concentration at 240 min (ng/mL)
Answers are plain numbers, in ng/mL.

concentration at 240 min recorded for this compound, CC(C)(C)[C@H](NC(=O)C(F)(F)F)C(=O)N1C[C@H]2[C@@H]([C@H]1C(=O)N[C@H](C#N)C[C@@H]1CCNC1=O)C2(C)C [Nirmatrelvir, reference compound] , is 47.2

---

test system: SARS-CoV-2 M^pro/3CL^pro (Severe acute respiratory syndrome coronavirus 2)
Format: biochemical
condition label: FRET; mean ± 1 S.D.
Give measured SARS-CoV2 M^pro enzyme assay IC95 for each item. Keep answers brief.
Answers are plain numbers, in nM.

Worked set:
[
  {
    "smiles text": "COc1ccc(F)c2[nH]c(C(=O)N[C@@H](CC(C)C)C(=O)N[C@@H](C[C@@H]3CCNC3=O)C(=O)c3nc4ccccc4s3)cc12",
    "result unit": "nM",
    "value": 1020
  },
  {
    "smiles text": "CC(C)(C)[C@H](NC(=O)C(F)(F)F)C(=O)N1C[C@H]2[C@@H]([C@H]1C(=O)N[C@@H](C[C@@H]1CCNC1=O)C(=O)c1nc3c(F)cccc3s1)C2(C)C",
    "result unit": "nM",
    "value": 140
  },
  {
    "smiles text": "CC(C)(C)[C@H](NC(=O)C(F)(F)F)C(=O)N1C[C@H]2[C@@H]([C@H]1C(=S)N[C@@H](C[C@@H]1CCNC1=O)C(=O)c1nc3c(F)cccc3s1)C2(C)C",
    "result unit": "nM",
    "value": 6000
  }
]

SARS-CoV2 M^pro enzyme assay IC95 recorded for this compound, "COc1ccc(F)c2[nH]c(C(=O)N[C@@H](CC(C)C)C(=O)N[C@@H](C[C@@H]3CCNC3=O)C(=O)c3nc4c(F)cccc4s3)cc12" , is 750

---

assay procedure: Pharmacokinetic study in PXB-mice (human liver-chimeric)
condition label: male, PXB (human liver-chimeric), mouse, plasma, po, 10 mg/kg, Plasma concentration, PXB-mice, p.o. 10 mg/kg, 24 hr; individual mice
attribute measured: concentration at 24 hr (ng/mL)
Numbers only, in ng/mL.

concentration at 24 hr recorded for this compound, CC(C)(C)[C@H](NC(=O)C(F)(F)F)C(=O)N1C[C@H]2[C@@H]([C@H]1C(=O)N[C@H](C#N)C[C@@H]1CCNC1=O)C2(C)C [Nirmatrelvir, reference compound] , is 0

---

assay procedure: Pharmacokinetic study in PXB-mice (human liver-chimeric)
condition label: male, PXB (human liver-chimeric), mouse, plasma, po, 10 mg/kg, Plasma concentration, PXB-mice, p.o. 10 mg/kg, 1440 min; individual mice
attribute measured: concentration at 1440 min

concentration at 1440 min recorded for this compound, CC(C)(C)[C@H](NC(=O)C(F)(F)F)C(=O)N1C[C@H]2[C@@H]([C@H]1C(=O)N[C@H](C#N)C[C@@H]1CCNC1=O)C2(C)C [Nirmatrelvir, reference compound] , is 0.6 ng/mL

---

assay procedure: in vitro
condition label: African green monkey, VeroE6 cells
Counter-ions that a name gives are not always drawn.
attribute measured: CC50 at 3 days

Worked set:
[
  {
    "compound": "Cn1cnc(Cn2c(=O)[nH]/c(=N\\c3cc4cn(C)nc4cc3Cl)n(Cc3cc(F)c(F)cc3F)c2=O)n1 [Ensitrelvir fumarate]",
    "value": "> 100 µM"
  },
  {
    "compound": "CC(C)C(=O)OC[C@H]1O[C@@H](n2ccc(NO)nc2=O)[C@H](O)[C@@H]1O",
    "value": "> 100 µM"
  }
]

Next, consider the following compound.
CC50 at 3 days recorded for this compound, CC(C)(C)[C@H](NC(=O)C(F)(F)F)C(=O)N1C[C@H]2[C@@H]([C@H]1C(=O)N[C@H](C#N)C[C@@H]1CCNC1=O)C2(C)C [Nirmatrelvir, reference compound] , is > 100 µM

---

assay procedure: in vivo
condition label: male, PXB (human liver-chimeric), mouse, po, 10 mg/kg
attribute measured: half-life (h)
Numbers only, in h.

half-life recorded for this compound, CC(C)(C)[C@H](NC(=O)C(F)(F)F)C(=O)N1C[C@H]2[C@@H]([C@H]1C(=O)N[C@H](C#N)C[C@@H]1CCNC1=O)C2(C)C [Nirmatrelvir, reference compound] , is 1.03
